// values below are reported TGI
- Test system: CCRF-CEM leukemia
- protocol_description: NCI tumour cell line growth inhibition, 48 h

Look over these answered cases.
- compound: "O=C(N/N=C/c1ccc(Cl)cc1)c1ccccc1Nc1ccccc1C(=O)N/N=C/c1ccc(Cl)cc1"
  result: "> 100 µM"
- compound: "CCOC(=O)c1cc(-c2ccccc2)[nH]c1N/N=C/c1c(Cl)cccc1Cl"
  result: "13.5 µM"
- compound: "Cc1c/c(=N/NC(=O)c2ccncc2)n2nc(N)sc2n1"
  result: "> 100 µM"
- compound: "CN1CCN(c2ccc(Nc3ncc4cc5n(c4n3)C3(CCCCC3)CNC5=O)nc2)CC1"
  result: "3.6 µM"
- compound: "COc1ccc(/C=C2\\N=C(c3ccccc3)OC2=O)cc1OC(C)=O"
  result: "74.4 µM"
- compound: "CCOP(=O)(OCC)C(Nc1cccc(F)c1)c1ccc(N(C)C)cc1 (centres undefined)"
  result: "> 100 µM"

Prompt: GET /values?readout=TGI&item= CN1CCc2cc3c4cc2C1Cc1ccc(cc1)Oc1cc(ccc1O)CC1c2c(cc(O)c(c2O4)O3)CCN1C (centres undefined)
Response: 14 µM

###

- Test system: A498 renal
- protocol_description: NCI tumour cell line growth inhibition, 48 h
Quick list: GI50 per entry.

Worked set:
- compound: "FC(F)(F)c1ccc(NCc2nc3ccccc3[nH]2)cc1"
  measured_target: "A498 renal"
  GI50: "12400 nM"
- compound: "N[C@@H](CSSC[C@H](N)C(=O)N1CCn2cc(-c3ccccc3)nc2[C@@H]1CC1CCCCC1)C(=O)N1CCn2cc(-c3ccccc3)nc2[C@@H]1CC1CCCCC1"
  measured_target: "A498 renal"
  GI50: "2680 nM"
- compound: "O=C1NC(=O)C(c2c[nH]c3ccccc23)=C1c1ccccc1"
  measured_target: "A498 renal"
  GI50: "> 17600 nM"
- compound: "O=C(Nc1ccccc1)Nc1ccc(Cl)c(Cl)c1"
  measured_target: "A498 renal"
  GI50: "5040 nM"
- compound: "COC(=O)[C@]12CC[C@@H](C)[C@H](C)[C@@H]1C1=CC[C@@H]3[C@@]4(C)CC(=O)[C@H](O)[C@@](C)(CO)[C@@H]4C(=O)C[C@@]3(C)[C@]1(C)CC2"
  measured_target: "A498 renal"
  GI50: "19400 nM"
- compound: "Cc1cc(C#Cc2ccccc2)ccc1-n1c(/C=C/c2cc(O)ccc2O)nc2ccccc2c1=O"
  measured_target: "A498 renal"
  GI50: "370 nM"

// below: GI50 requested for another compound
Prompt: Entry under review: CC1(O)COCCCCOc2c(CN)cccc2NC(=O)c2nc(cnc2N)-c2ccc(cc2)S(=O)(=O)C(C)(C)C1 (stereo not given) . Reported GI50?
Response: 16.3 nM

###

- Tested on: RPMI-8226 leukemia
- protocol_description: NCI tumour cell line growth inhibition, 48 h
property_label: TGI

Known results for compounds:
- smiles_code: "O=C(NNC(=O)c1ccccc1O)c1ccco1"
  measured_target: "RPMI-8226 leukemia"
  TGI: "> 100 µM"
- smiles_code: "O=C(O)c1nc2ccccc2nc1NCc1ccc(F)cc1"
  measured_target: "RPMI-8226 leukemia"
  TGI: "> 100 µM"
- smiles_code: "O=C1OCCC[C@H]2O[C@@H](COCc3ccccc3)C[C@@H]12"
  measured_target: "RPMI-8226 leukemia"
  TGI: "> 100 µM"

Prompt: Fill in the blank: the reported TGI of Nc1ccc(C(=O)Nc2ccccc2N)cc1 is ____.
Response: 98.8 µM

Prompt: Here is the next compound: NC(=O)c1cc([N+](=O)[O-])cc([N+](=O)[O-])c1
Response: > 100 µM

Prompt: Further, for COc1c(Br)cc(/C=C(\C#N)c2ccccn2)cc1Br ?
Response: > 100 µM

###

- Tested on: HOP-62 NSCLC
- protocol_description: NCI tumour cell line growth inhibition, 48 h
Each item that follows carries a reported TGI.

Some compounds with recorded TGI:
- compound: "COC(=O)/C=C(\\C)CC/C=C(\\C)CCC(O)C(C)(C)O (configuration not stated)"
  property_label: "TGI"
  result: "78 µM"
- compound: "Cn1ccoc1=Nc1ccc(Cl)c(Cl)c1"
  property_label: "TGI"
  result: "> 10 µM"
- compound: "CCCCc1ccc(Nc2nc(Cl)c3ncn(C4CC(Oc5ccc(C)cc5)C(COc5ccc(C)cc5)O4)c3n2)cc1 (configuration not stated)"
  property_label: "TGI"
  result: "> 100 µM"

Prompt: Which TGI value belongs to COc1ccc(/C=C2\CCc3cc(OC)c(OC)cc3C2=O)cc1 ?
Response: > 10 µM

Prompt: Try this compound next: CCn1c(O)c(C=Nc2ccccc2)s/c1=N/Nc1nc(-c2ccc(O)c(O)c2)cs1
Response: > 100 µM

Prompt: Note, next up: COc1ccc2c(c1)N(CCO)C1=C(C(=O)OC1)C2c1ccc(OC)c(OC)c1 (configuration not stated)
Response: > 100 µM

Prompt: What would you report for C#Cc1ccc(-n2c(/C=C/c3ccc4ccccc4c3)nc3ncccc3c2=O)cc1 ?
Response: > 100 µM

Prompt: Try Nc1nc(OCC2CCCCC2)c2[nH]cnc2n1 next.
Response: 53.9 µM

Prompt: Next: CCSc1nc(-c2cccs2)nc2ccc(I)cc12
Response: > 100 µM

###

- Tested on: CAKI-1 renal
- protocol_description: NCI tumour cell line growth inhibition, 48 h
This section presents molecules with their documented TGI values.

- molecule: "CNc1ncnc2c1cnn2CCCCO"
  result: "> 100 µM"
- molecule: "CC1COCCN1CC#CCOC(=O)c1cc2ccccc2oc1=O (stereo unspecified)"
  result: "> 100 µM"

Prompt: TGI lookup needed for NNc1ncc2c(n1)-c1ccccc1OC2 , thanks.
Response: > 100 µM

Prompt: Also Cn1ccoc1=Nc1ccc(Cl)c(Cl)c1 , if possible.
Response: > 10 µM

Prompt: Now try CC(C)NC(=O)OCc1c(COC(=O)NC(C)C)c(-c2cc[n+](COC(=O)C(C)C)cc2)n2c1CCC2 .
Response: > 94.8 µM

Prompt: Now consider Cc1cc(C#Cc2ccccc2)ccc1-n1c(/C=C/c2cc(O)ccc2O)nc2ccccc2c1=O .
Response: 7.24 µM

###

compounds and their reported TGI
- Test system: SNB-75 CNS
- protocol_description: NCI tumour cell line growth inhibition, 48 h
*1 amine or outer side, *2 acyl side, *3 side chain or, on linkers, in order; H or OH if unused. Where a SMILES comes first, the peptide text is derived from it. [ ]: non-standard residue; d: D form. ξ: configuration not given here. X22 = O=C(C(CC(O)CO)O[*:1])[*:2]; Ile(3ξ) = CCC(C)[C@H](N)C(=O)O; NMeV = CN[C@H](C(=O)O)C(C)C; NMeA = CN[C@@H](C)C(=O)O; βAla = NCCC(=O)O

Below, 2 compounds whose answers are already recorded.
- compound: "CCC(C)[C@@H]1NC(=O)[C@@H]2CCCN2C(=O)C(CC(O)CO)OC(=O)CCNC(=O)[C@H](C)N(C)C(=O)[C@H](C(C)C)N(C)C1=O (stereo not given in full) (cyclo([Ile(3ξ)][NMeV][NMeA][βAla][X22]P))"
  measured_target: "SNB-75 CNS"
  property_label: "TGI"
  result: "> 100 µM"
- compound: "CC1OC(OCC2OC(Oc3ccc(C4CC(=O)c5c(O)cc(O)cc5O4)cc3O)C(O)C(O)C2O)C(O)C(O)C1O (stereo not given)"
  measured_target: "SNB-75 CNS"
  property_label: "TGI"
  result: "> 100 µM"

Prompt: For the compound CO/N=C(\C)c1cccc(Nc2nc3ccccc3c3occc23)c1 , what TGI is on record?
Response: 29.1 µM

Prompt: And the next one, CCCCCC(=Nc1n[nH]nc1C(N)=O)OCC ?
Response: > 100 µM

Prompt: Also CCOC(=O)CC(=O)CSc1c(-c2ccccc2)c(=O)n(-c2ccccc2)c(=S)n1-c1ccccc1 , if possible.
Response: > 100 µM

###

- Test system: SW-620 colon
- protocol_description: NCI tumour cell line growth inhibition, 48 h; in the data active = GI50 below about 0.43 µM; inactive = the rest
Give your call using only these classes: YES = active, NO = inactive

- compound: "COc1ccc2c(c1)N(CCO)C1=C(C(=O)OC1)C2c1ccc(OC)c(OC)c1 (centres undefined)"
  class_label: "NO"
- compound: "Cc1cn2c(/C=C3/C(=O)Nc4ccc(Cl)cc43)c(C)nc2s1"
  class_label: "YES"
- compound: "CC(C)[C@H](C(=O)O[C@@H]1/C=C/C(=O)O[C@@H](C)CCC/C=C/[C@@H]2C[C@H](O)C[C@H]21)N(C)C"
  class_label: "NO"
- compound: "Fc1ccc(-c2c(-c3ccncc3)[nH]c3nccnc23)cc1"
  class_label: "NO"
- compound: "Fc1ccc(-c2nn3c(COc4ccc(Cl)cc4Cl)nnc3s2)cc1Oc1ccccc1"
  class_label: "NO"
- compound: "COc1ccc(-c2nc3sccn3c2-c2ccnc(NCCCNS(=O)(=O)c3ccc(F)cc3)n2)cc1"
  class_label: "NO"
- compound: "CCCc1n(Cc2ccc3ccccc3n2)cc[n+]1Cc1ccc2ccccc2n1"
  class_label: "NO"
- compound: "OCc1ccc(N(Cc2ccc(F)cc2)CC2CCC2)cc1Cl"
  class_label: "NO"
- compound: "COc1ccc2c(c1)C(=O)c1c-2c(N2CCN(C(=O)CCNCCNCCO)CC2)nc2ccccc12"
  class_label: "NO"
- compound: "COC1=CC2CCN3Cc4cc5c(cc4C(C1O)C23)OCC5 (centres undefined)"
  class_label: "NO"

Prompt: How was CCN(CCO)CCCOc1ccc2c(Nc3cc(CC(=O)Nc4cccc(F)c4)[nH]n3)ncnc2c1 classified in this test?
Response: NO

Prompt: Please do the same for CC/C(=N/N=C(N)N)c1ccc(NC(=O)Nc2ccc(/C(CC)=N/N=C(N)N)cc2)cc1 as well.
Response: NO

Prompt: And then O=C1NC(=O)C(c2c[nH]c3ccccc23)=C1c1ccccc1 , what is it?
Response: NO

Prompt: Try this compound next: N#Cc1c(N)c(C#N)c2c(c1-c1ccc(Cl)cc1)COc1ccc(F)cc1-2
Response: NO

Prompt: COc1c2ccccc2c(O)c2c(=O)ccn(C)c12 ?
Response: NO

Prompt: Repeat for the following compound: FC(F)(F)c1ccc(NCc2nc3ccccc3[nH]2)cc1
Response: NO

Prompt: Further, for O=C(Nc1ccccc1)Nc1ccc(Cl)c(Cl)c1 ?
Response: NO

Prompt: Continue with COC(=O)c1ccc2c(C(=Nc3ccc(N(C)C(=O)CN4CCN(C)CC4)cc3)c3ccccc3)c(O)[nH]c2c1
Response: NO

Prompt: Check COc1cc(NC(C)CCCN2C(=O)c3ccccc3C2=O)c2ncccc2c1OC (centres undefined) too.
Response: NO
